Where do the numbers come from? From patent US20090082329A1.

Biological target: IGF-1R in MCF7 cells (Homo sapiens, UniProt P08069)
Sequence (P08069 31-1367): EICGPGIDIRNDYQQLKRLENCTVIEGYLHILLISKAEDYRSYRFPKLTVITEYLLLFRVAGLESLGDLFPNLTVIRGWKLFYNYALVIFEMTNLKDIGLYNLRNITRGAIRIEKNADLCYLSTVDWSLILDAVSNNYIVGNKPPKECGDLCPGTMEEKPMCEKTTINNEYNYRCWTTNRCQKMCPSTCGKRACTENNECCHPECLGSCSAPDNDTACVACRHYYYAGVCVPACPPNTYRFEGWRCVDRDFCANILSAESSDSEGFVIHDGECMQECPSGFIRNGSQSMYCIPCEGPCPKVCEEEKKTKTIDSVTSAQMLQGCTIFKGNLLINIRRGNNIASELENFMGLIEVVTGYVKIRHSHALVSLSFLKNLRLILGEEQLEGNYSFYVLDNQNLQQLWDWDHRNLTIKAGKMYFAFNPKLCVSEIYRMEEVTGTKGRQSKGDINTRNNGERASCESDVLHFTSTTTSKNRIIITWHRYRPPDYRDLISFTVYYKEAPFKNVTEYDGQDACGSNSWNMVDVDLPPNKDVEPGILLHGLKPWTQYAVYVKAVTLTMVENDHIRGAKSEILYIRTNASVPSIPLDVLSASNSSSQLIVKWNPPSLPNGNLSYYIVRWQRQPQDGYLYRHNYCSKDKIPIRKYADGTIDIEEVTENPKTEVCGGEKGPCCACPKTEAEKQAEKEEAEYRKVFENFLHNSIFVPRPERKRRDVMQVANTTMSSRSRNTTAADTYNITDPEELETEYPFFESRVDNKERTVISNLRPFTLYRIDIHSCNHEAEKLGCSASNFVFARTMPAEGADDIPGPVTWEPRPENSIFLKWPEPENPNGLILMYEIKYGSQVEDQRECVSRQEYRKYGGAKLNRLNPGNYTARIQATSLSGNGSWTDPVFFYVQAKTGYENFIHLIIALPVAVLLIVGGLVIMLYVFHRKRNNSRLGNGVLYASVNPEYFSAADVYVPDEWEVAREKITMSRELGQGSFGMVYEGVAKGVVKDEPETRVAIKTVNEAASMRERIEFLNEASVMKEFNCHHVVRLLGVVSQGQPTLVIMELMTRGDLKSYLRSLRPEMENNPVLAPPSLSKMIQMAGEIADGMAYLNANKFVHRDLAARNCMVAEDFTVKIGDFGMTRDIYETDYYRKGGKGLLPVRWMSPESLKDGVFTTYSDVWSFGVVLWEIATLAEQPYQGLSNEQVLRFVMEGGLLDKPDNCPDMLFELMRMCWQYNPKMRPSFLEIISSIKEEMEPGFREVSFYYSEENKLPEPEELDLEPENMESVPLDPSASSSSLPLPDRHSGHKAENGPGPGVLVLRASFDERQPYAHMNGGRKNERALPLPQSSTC
Assay: Autophosphorylation of IGF-1R in MCF7 cells after stimulation with IGF-1 (ELISA)
Format: cell-based
Design: endogenous in cells; host or cells: MCF-7 cells
Conditions: MCF-7 cells, compound added one hour before stimulation with IGF1; read-out: Test B IC50
Method: B) Measurement of the Autophosphorylation of IGF-1R in MCF7 Cells after Stimulation with IGF-1 Cell Culturing and Execution of the Test: The autophosphorylation of IGF1R in the IGF1-induced cells is evaluated by means of an ELISA technique (Enzyme Linked ImmunoSorbent Assay). […] The level of peroxidase activity (measured by OD with a luminescent substrate) reflects the phosphorylation status of the receptor. (i) The tests are performed in duplicate and the mean of the two tests is calculated. […]
Attribute Measured: IC50

Reference set, count: 6
CCCCN(C)C(=O)Nc1cc(CN2C(=O)N(c3ccc(SC(F)(F)F)cc3)C(=O)C2(C)C)ccn1 = 10 to 100 nM
CC1(C)C(=O)N(c2ccc(SC(F)(F)F)cc2)C(=O)N1Cc1ccnc(Nc2cccnc2Cl)c1 [Example 40E] = 10 to 100 nM
CC1(C)C(=O)N(c2ccc(SC(F)(F)F)cc2)C(=O)N1Cc1ccnc(Nc2cc(F)ccc2F)c1 = > 100 nM
CCCN(C)C(=O)Nc1cc(CN2C(=O)N(c3ccc(SC(F)(F)F)cc3)C(=O)C2(C)C)ccn1 = 10 to 100 nM
CN(C)CCCNC(=O)Nc1cc(CN2C(=O)N(c3ccc(SC(F)(F)F)cc3)C(=O)C2(C)C)ccn1 = > 100 nM
CC1(C)C(=O)N(c2ccc(SC(F)(F)F)cc2)C(=O)N1Cc1ccnc(Nc2cccc(F)c2)c1 [Example 40C] = 10 to 100 nM

Each molecule below has a reported value. Please supply its IC50.
1. CC1(C)C(=O)N(c2ccc(SC(F)(F)F)cc2)C(=O)N1Cc1ccnc(NC(=O)NC2CC2)c1
2. CC1(C)C(=O)N(c2ccc(SC(F)(F)F)cc2)C(=O)N1Cc1ccnc(Nc2ccc(Cl)nc2)c1 [Example 40F]
3. Cc1ccc(F)c(C(=O)Nc2cc(CN3C(=O)N(c4ccc(SC(F)(F)F)cc4)C(=O)C3(C)C)ccn2)c1Cl
4. CC1(C)C(=O)N(c2ccc(SC(F)(F)F)cc2)C(=O)N1Cc1ccnc(Nc2ccc(O)nc2)c1 [Example 40G]
5. CN(C)C(=O)c1cccc(Nc2cc(CN3C(=O)N(c4ccc(SC(F)(F)F)cc4)C(=O)C3(C)C)ccn2)c1

Output:
1: 10 to 100 nM; 2: > 100 nM; 3: > 100 nM; 4: 10 to 100 nM; 5: < 10 nM

Each molecule below has a reported value. Please supply its IC50.
1. CC1(C)C(=O)N(c2ccc(SC(F)(F)F)cc2)C(=O)N1Cc1ccnc(Nc2cc(Cl)ccc2Cl)c1
2. CC1(C)C(=O)N(c2ccc(SC(F)(F)F)cc2)C(=O)N1Cc1ccnc(NC(=O)NCCCN2CCCC2)c1
3. CC1(C)C(=O)N(c2ccc(SC(F)(F)F)cc2)C(=O)N1Cc1ccnc(NC(=O)NC2CCCC2)c1
4. CC1(C)C(=O)N(c2ccc(SC(F)(F)F)cc2)C(=O)N1Cc1ccnc(NC(=O)N2CCCC2)c1
5. CC1(C)C(=O)N(c2ccc(SC(F)(F)F)cc2)C(=O)N1Cc1ccnc(Nc2cncnc2)n1

Output:
> 100 nM
10 to 100 nM
< 10 nM
< 10 nM
10 to 100 nM

Each molecule below has a reported value. Please supply its IC50.
1. CC1(C)C(=O)N(c2ccc(SC(F)(F)F)cc2)C(=O)N1Cc1ccnc(NC(=O)NCCN2CCCC2)c1
2. CC1(C)C(=O)N(c2ccc(SC(F)(F)F)cc2)C(=O)N1Cc1ccnc(NC(=O)c2cc(Cl)cc(Cl)c2)c1
3. CC1(C)C(=O)N(c2ccc(SC(F)(F)F)cc2)C(=O)N1Cc1ccnc(NC(=O)N2CCC2)c1
4. CN1CCN(C(=O)Nc2cc(CN3C(=O)N(c4ccc(SC(F)(F)F)cc4)C(=O)C3(C)C)ccn2)CC1
5. CC1(C)C(=O)N(c2ccc(SC(F)(F)F)cc2)C(=O)N1Cc1ccnc(NC(=O)c2ccc(Cl)c(Cl)c2)c1

Output:
["> 100 nM", "> 100 nM", "10 to 100 nM", "10 to 100 nM", "> 100 nM"]

The recorded IC50 for entry "CNC(=O)Nc1cc(CN2C(=O)N(c3ccc(S(=O)(=O)C(F)(F)F)cc3)C(=O)C2(C)C)ccn1" equals < 10 nM
